meta.source: PubChem BioAssay AID504652

molecular target: D(1A) dopamine receptor (Homo sapiens) (UniProt P21728); experiment: Antagonist of Human D 1 Dopamine Receptor: qHTS; settings: HEK293 TREx D1 cells, calcium flux, dopamine EC80; at 10 µM; active compounds read low; also: % is scaled to controls: 0 for no effect and ±100 for the full control effect
Sequence (P21728 whole entry, looked up): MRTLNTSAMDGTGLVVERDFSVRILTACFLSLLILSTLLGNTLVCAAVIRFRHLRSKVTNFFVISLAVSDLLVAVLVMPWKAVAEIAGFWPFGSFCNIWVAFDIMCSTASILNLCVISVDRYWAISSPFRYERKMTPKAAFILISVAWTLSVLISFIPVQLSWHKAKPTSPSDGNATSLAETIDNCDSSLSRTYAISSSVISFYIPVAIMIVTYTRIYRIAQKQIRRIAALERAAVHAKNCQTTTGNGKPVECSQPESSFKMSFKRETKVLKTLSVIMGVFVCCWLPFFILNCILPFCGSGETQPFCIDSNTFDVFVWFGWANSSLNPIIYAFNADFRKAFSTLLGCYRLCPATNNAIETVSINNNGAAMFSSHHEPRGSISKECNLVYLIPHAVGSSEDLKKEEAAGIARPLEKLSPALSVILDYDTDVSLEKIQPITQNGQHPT
The whole screen tested about 360,000 compounds, of which about 11,000 (3.1%) were called active. Many of the other results were omitted from the sample, so actives are more common in it than they were.
Assignment: determine reported activity change, negative = inhibition for the given compounds.
The reply should be a number in %, with the unit left off.

Form field: reported activity change, negative = inhibition of `CC(C)Cn1c(=O)c2ccccc2n2c(CCC(=O)N3CCN(c4cccc(Cl)c4)CC3)nnc12`
-9.12

Next up: `CCOc1cccc(OCCCOc2cccc3cccnc23)c1`
7.73

Next up: `COc1ccccc1CNC(=O)C1CCN(c2nc3ccccc3o2)CC1`
15.4

Next up: `Cc1ccc2cccc(OCCCOc3ccccc3CO)c2n1`
-71.7

Next up: `COc1ccccc1CNS(=O)(=O)c1ccc(C)cc1`
-13.9

###

biological target: D(1A) dopamine receptor (Homo sapiens); assay: Antagonist of Human D 1 Dopamine Receptor: qHTS; details: HEK293 TREx D1 cells, calcium flux, dopamine EC80; at 10 µM; also: % is scaled to controls: 0 for no effect and ±100 for the full control effect
Out of some 360,000 compounds screened, about 11,000 (3.1%) were called active. No stated cut-off is given here; in the data, active means activity change below about -30%; inactive means the rest. The list comes from a sample in which actives are over-represented; it also holds close analogues and randomly drawn compounds.
Write down the outcome that applies. Available outcomes: active, inactive

Recorded test outcome, item `O=C(CN1C(=O)COc2ccccc21)Nc1ccc(F)cc1`
inactive

Next up: CCOC(=O)c1c(C)[nH]c(C2=NNC(=NC(C)COC)SC2)c1C (stereo not drawn)
active

Next up: Cc1c(CNC(C)c2ccccc2)c(C(=O)O)c(C)n1Cc1c(F)cccc1Cl (stereo not drawn)
inactive

Next up: `COc1ccccc1NC(=O)c1cc(C2CC2)nc2c1c(C)nn2-c1ccc(C)cc1`
inactive

Next up: `COc1cc2nc(SCC(=O)Nc3ccccc3F)n3nc(-c4ccccc4)nc3c2cc1OC`
inactive

Next up: `COc1cc(C(=O)Nc2ccc(OCc3cc(=O)n4cc(C)sc4n3)cc2)cc(OC)c1OC`
inactive

Next up: `CCc1ccc(NC(=O)CSc2nc3c([nH]c4ccccc43)c(=O)n2-c2cccc(OC)c2)cc1`
inactive

Next up: `O=C(NCCCN1CCN(c2ccc(F)cc2)CC1)Nc1ccc([N+](=O)[O-])cc1`
active

Next up: CCOC(=O)CCC(=O)OCC(=O)NC(C)C1CC2CCC1C2 (stereo not drawn)
inactive

Next up: `CN(C)c1ccc(/C=C/C(=O)c2ccc(O)cc2)cc1[N+](=O)[O-]`
active

Next up: `COc1ccc(C)cc1-n1c(-c2ccc(C)cc2)cc2c1CC(C)(C)CC2=O`
inactive

Next up: `Cc1ccc(CSc2ccc(S(=O)(=O)N3CCCCC3)cn2)cc1`
inactive

Next up: `COc1ccc(C(=O)NCCc2ccc(S(N)(=O)=O)cc2)cc1OC`
active

###

molecular target: D(1A) dopamine receptor (Homo sapiens); test: Antagonist of Human D 1 Dopamine Receptor: qHTS; settings: HEK293 TREx D1 cells, calcium flux, dopamine EC80; at 10 µM; also: % is scaled to controls: 0 for no effect and ±100 for the full control effect
Among all 360,000 compounds or so, about 11,000 (3.1%) were called active. Rule as the data show it: active = activity change below about -30%; inactive = the rest. This excerpt belongs to a sample that is enriched for actives.
Write down the outcome that applies. Available outcomes: active, inactive

Recorded test outcome, item `O=C(CN1CCN(Cc2ccc(Cl)cc2)C1=O)NCc1ccc(F)cc1`
inactive

Next up: `CCNS(=O)(=O)c1ccc(NC(=O)Nc2cccc(OC)c2)cc1`
active

Next up: `O=C1CCCN1C(=O)COc1ccc([N+](=O)[O-])cc1`
active

Next up: `CC(C)(C)OC(=O)N1CCC(c2c(C(=O)Nc3ccc4c(c3)OCO4)cnn2-c2ccccc2)CC1`
inactive

Next up: `O=C(Nc1ccc(F)cc1)C(=O)c1cn(CC(=O)N2CCOCC2)c2ccccc12`
inactive

Next up: `COc1ccc(-c2ccc(CNCCCN3CCOCC3)o2)cc1Cl`
inactive

Next up: `O=C(Nc1c(-c2ccc(F)cc2)nc2ccccn12)c1cccc(F)c1`
inactive

Next up: `Cn1c(CNc2nc(-c3ccccc3)cs2)nnc1SCC(=O)c1ccccc1`
inactive

Next up: `CCOC(=O)CSc1nnc(CNC(=O)c2cccs2)n1-c1ccccc1`
inactive

Next up: `COCCn1c(=O)[nH]c(=O)c2cc(C(=O)c3cc(OC)ccc3O)cnc21`
inactive

###

biological target: D(1A) dopamine receptor (Homo sapiens) (UniProt P21728); assay: Antagonist of Human D 1 Dopamine Receptor: qHTS; details: HEK293 TREx D1 cells, calcium flux, dopamine EC80; at 10 µM; active compounds read low; also: % is scaled to controls: 0 for no effect and ±100 for the full control effect
Out of some 360,000 compounds screened, about 11,000 (3.1%) were called active. This is one part of a sample in which actives are shown more often than they occur.
Assignment: determine reported activity change, negative = inhibition for the given compounds.
The reply should be a number in %, with the unit left off.

Form field: reported activity change, negative = inhibition of `Cc1c(Cl)cccc1NC(=O)CCS(=O)(=O)c1ccc2c(c1)oc(=O)n2C`
-0.334

Next up: `CC1CCN(S(=O)(=O)c2ccc3ncn(CC(=O)N(C)C4CCCCC4)c(=O)c3c2)CC1`
-7.06

Next up: `O=C(COC(=O)c1ccco1)NCc1ccc(Cl)cc1`
-43.8

Next up: `Cc1cc(C)cc(NC(=O)CSc2nc3nccnc3c(=O)n2CCc2c[nH]c3ccccc23)c1`
1.93

Next up: `Cc1cc(C)c(NC(=O)CSc2nc3nccnc3c(=O)n2CCc2c[nH]c3ccccc23)c(C)c1`
1.52

Next up: `CC(=O)Nc1ccc(NC(=O)CSc2nnc3c4cc(Br)ccc4n(C)c3n2)cc1`
-2.66

Next up: Cc1cc(C)c2nc(NC(=O)C3CCCO3)sc2c1 (configuration not stated)
-5.2

Next up: `COc1cc(NC(=O)Cn2nc(-c3ccc(C)c(C)c3)ccc2=O)cc(OC)c1`
-2.73

Next up: `Cc1ccc(Cn2c(CCCNC(=O)C3CCCCC3)nc3ccccc32)cc1`
10.5

Next up: `Cc1oc(C)c(C(=O)NCCCC(=O)O)c1C(=O)NCCCC(=O)O`
1.94

Next up: CCOC(=O)C1CCCN(C(=O)Cn2ncc3c(C)n(Cc4ccc(F)cc4)c(C)c3c2=O)C1 (configuration not stated)
-36.8

Next up: `CC(=O)c1c(C)n(-c2ccc(C)cc2)c2ccc(O)cc12`
-50.8

Next up: `Cc1ccsc1/C=N/n1c(=S)[nH]nc(C)c1=O`
0.744

Next up: O=C(CNC(=O)c1ccccc1)OC(C(=O)Nc1cc([N+](=O)[O-])ccc1F)c1ccccc1 (configuration not stated)
4.21

Next up: `COc1ccccc1NC(=O)c1cc(S(=O)(=O)NCCc2ccccc2)ccc1F`
-14.3

Next up: `COc1ccccc1NC(=O)Cn1cnc2ccc(S(=O)(=O)N3CCC(C)CC3)cc2c1=O`
0.0222

Next up: `COCCCNCCOCCOc1ccc(Cl)cc1Br`
-34.7

###

target: D(1A) dopamine receptor (Homo sapiens) (UniProt P21728); experiment: Antagonist of Human D 1 Dopamine Receptor: qHTS; settings: HEK293 TREx D1 cells, calcium flux, dopamine EC80; at 10 µM; also: % is scaled to controls: 0 for no effect and ±100 for the full control effect
The whole screen tested about 360,000 compounds, of which about 11,000 (3.1%) were called active. Rule as the data show it: active = activity change below about -30%; inactive = the rest. This excerpt belongs to a sample that is enriched for actives.
Write down the outcome that applies. Available outcomes: active, inactive

Recorded test outcome, item O=C1OC(OC(=O)c2ccccc2Br)C(N2CCOCC2)=C1Cl (configuration not stated)
inactive

Next up: `Cc1ccc(S(=O)(=O)Nc2ccc3ncccc3c2)cc1`
active

Next up: `CCn1c(=O)c2cc(C(=O)NCCc3ccc(Cl)cc3)sc2c2ccccc21`
inactive

Next up: COc1ccc2c(C)cc(SCC(=O)NCC3CCCO3)nc2c1 (configuration not stated)
inactive

Next up: CCC(=O)N1CCc2cc(S(=O)(=O)NC(Cc3ccccc3)C(=O)NCc3ccccc3)ccc21 (configuration not stated)
active

Next up: `COc1cc(/C=C2\CCCc3c2nc2ccccc2c3C(=O)O)cc(Cl)c1O`
inactive

Next up: `CCc1ccccc1NC(=O)CSc1nnc(-c2ccncc2)o1`
inactive

Next up: `CCn1c2ccccc2c2cc(CN3CCN(Cc4cccc(Cl)c4)CC3)ccc21`
inactive

Next up: `Cc1ccccc1-c1nc2cc(NC(=O)c3cccc(OCCC(C)C)c3)ccc2o1`
inactive

Next up: CCC(=O)N1CCc2cc(S(=O)(=O)NC(Cc3ccccc3)C(=O)NCc3ccc(C)cc3)ccc21 (configuration not stated)
inactive

Next up: CCOC(=O)C1=C(CSc2nccn2C)NC(=O)NC1c1ccc(OC)cc1 (configuration not stated)
active

Next up: O=C(COc1ccc(Cl)cc1)NCc1nnc(SCC(=O)NCC2CCCO2)o1 (configuration not stated)
active

Next up: `O=C(CCc1nc(CN2CCN(S(=O)(=O)c3ccc(F)cc3)CC2)no1)N1CCCCC1`
inactive

Next up: CCc1ccc(NC(=O)CC2C(=O)NCCN2C(=S)Nc2ccccc2)cc1 (configuration not stated)
active

Next up: `CC(C)C[C@H](CO)Nc1nc(N(C)c2cccc(Cl)c2)c2ncn(C(C)C)c2n1`
active

Next up: `N#Cc1nc(Nc2cccc(Cl)c2)nc(NC2CCCC2)n1`
inactive

Next up: CCNC(=O)N1CCNC(=O)C1CC(=O)Nc1ccc(C(=O)OCC)cc1 (configuration not stated)
inactive

Next up: `CCN(CC)C(=O)CSc1nnc(-c2ccc(S(=O)(=O)NCc3ccccc3Cl)cc2)o1`
active

Next up: Cc1ccccc1C(=O)OC1OC(=O)C(Cl)=C1Nc1ccccc1 (configuration not stated)
inactive

Next up: `Cc1ccc(C(=O)NC(=S)Nc2ccc(N3CCOCC3)cc2)cc1`
inactive

Next up: CCC(=O)N1CCc2cc(S(=O)(=O)NC(C(=O)N3CCc4ccccc4C3)C(C)C)ccc21 (configuration not stated)
active

Next up: `O=c1cc(COc2cccc(C(F)(F)F)c2)nc2sc3c(n12)CCCC3`
inactive
